# measurement description: Nitroreductase enzyme assay with CB 1954 as substrate (HPLC)
# Assay type: biochemical
Please go through the items and note down their kcat for CB1954 (text).
# number then unit; no other words

Exercise: Which measured kcat for CB1954 (text) value corresponds to Bam YwrO: nitroreductase from B. amyloliquefaciens, SEQ ID NO: 2 (protein, listed as Bacillus amyloliquefaciens) VKVLVLAVHPDMENSAVNKAWAEELKKHDELTVRELYKEYPDGQIDAEKERQLCEQYDRIVFQFPLYWYSAPPLLKTWMDHVLSYGWAYGSKGKALHGKELMLAVSVGAGEDAYQAGGSNHFTLSELLRPFQAMANFTGMTYLPAFALYGVNGADATDIHDNAKRLAAYIKKSF ?
Solution: 8.2 s⁻¹

Exercise: Please do the same for YdgI (Bacillus subtilis subsp. subtilis str. 168) (protein, made in house; host or cells: E. coli (pMTL1015; HMS174)) MIKTNDFMEIMKGRRSIRNYDPAVKISKEEMTEILEEATTAPSSVNAQPWRFLVIDSPEGKEKLAPLASFNQTQVTTSSAVIAVFADMNNADYLEEIYSKAVELGYMPQEVKDRQIAALTAHFEKLPAQVNRETILIDGGLVSMQLMLTARAHGYDTNPIGGYDKENIAETFGLDKERYVPVMLLSIGKAADEGYASYRLPIDTIAEWK as well.
Solution: 30.3 s⁻¹

Exercise: Next record, please: E. coli NfnB: the known E. coli B nitroreductase enzyme (NfnB) (protein) MDIISVALKRHSTKAFDASKKLTPEQAEQIKTLLQYSPSSTNSQPWHFIVASTEEGKARVAKSAAGNYVFNERKMLDASHVVVFCAKTAMDDVWLKLVVDQEDADGRFATPEAKAANDKGRKFFADMHRKDLHDDAEWMAKQVYLNVGNFLLGVAALGLDAVPIEGFDAAILDAEFGLKEKGYTSLVVVPVGHHSVEDFNATLPKSRLPQNITLTEV
Solution: 6 s⁻¹

Exercise: Record: P. gingivalis YwrO: nitroreductase from Porphyromonas gingivalis, SEQ ID NO: 25 (protein, listed as Porphyromonas gingivalis) MKKTLVIVVHPDLTKSVINKAWAKAIEGAATIHHLYEQYPNGQIDLAHEQALLEAHDRIVFQFPLYWYAAPYLLKKWMDEVFTEGWAYGAGGDKMEGKEICAAVSCGSPKSAFAEGAQQCHTLRSYLNVFDGIAAFLRARFTGYHACYDSYNPRLPEMLPANCEAYLRFIKGE
Solution: 3.2 s⁻¹

meta.source: patent US20040014191A1
